system: BT-549; assay: NCI tumour cell line growth inhibition, 48 h
The source made the active and inactive calls. Cut-off read from the data, not from the text of the source: active = GI50 up to about 1.1 µM and inactive = higher.
Reported GI50 values for a set of compounds

>  <Compound>
CCN(CC)C(=S)N/N=C/c1cc([N+](=O)[O-])ccc1O

>  <GI50>
4.54 µM (inactive)

$$$$
>  <Compound>
CN(C)c1ccc(C2ON=C(c3ccccc3)N2C23CC4CC(CC(C4)C2)C3)cc1 (stereo unspecified)

>  <GI50>
> 10 µM (inactive)

$$$$
>  <Compound>
CCOC(=O)c1nnsc1N/N=C\c1ccc([N+](=O)[O-])cc1

>  <GI50>
> 100 µM (inactive)

$$$$
>  <Compound>
COC(C)(C)CCc1[nH]c2ccccc2c1CC(=O)NCCc1cncn1C

>  <GI50>
> 100 µM (inactive)

$$$$
>  <Compound>
COc1ccc2c(c1)C1Oc3ccccc3CC1CO2 (stereo unspecified)

>  <GI50>
52.2 µM (inactive)

$$$$
>  <Compound>
Cc1oc2c(cc(O)c3cc(O)ccc32)c2cccc1-2

>  <GI50>
0.697 µM (active)

$$$$
>  <Compound>
O=c1[nH]nc(Cc2ccccc2)n1/N=C/c1cccnc1

>  <GI50>
25 µM (inactive)

$$$$
>  <Compound>
Cc1cccc2oc3c(CC(=O)O)cccc3c(=O)c12

>  <GI50>
> 100 µM (inactive)

$$$$
>  <Compound>
O=C(O)/C=C(/C(=O)O)C12CCN3CC4=CCOC5CC(=O)NC1C5C4CC32 (stereo unspecified)

>  <GI50>
> 100 µM (inactive)

$$$$
>  <Compound>
COc1ccc(/N=c2\ssc(C(=S)Nc3ccc(OC)cc3)c2S)cc1

>  <GI50>
> 100 µM (inactive)

$$$$
>  <Compound>
COc1ccc(/C=C2\CCC(C)c3c2nc(N)c(C#N)c3-c2ccc(OC)c(OC)c2)cc1OC (stereo unspecified)

>  <GI50>
8 µM (inactive)

$$$$

---

tested on: OVCAR-3; experiment: NCI tumour cell line growth inhibition, 48 h
Active and inactive are the calls of the source. Rule as the data show it: active = GI50 up to about 1.1 µM and inactive = higher.
Outcomes: TRUE for active, FALSE for inactive

>  <Compound>
Cc1nc2sc(CCl)nn2c(=O)c1Cl

>  <Answer label>
FALSE

$$$$
>  <Compound>
CN(CCSCCN(C)C(=O)OC(C)(C)C)C(=O)OC(C)(C)C

>  <Answer label>
FALSE

$$$$
>  <Compound>
N=C(N)NS(=O)(=O)c1ccc(NC(=O)c2cccn3c(=O)c4ccccc4nc23)cc1

>  <Answer label>
FALSE

$$$$
>  <Compound>
O=C(O)CCSC(=O)Nc1cccc([N+](=O)[O-])c1

>  <Answer label>
FALSE

$$$$
>  <Compound>
COc1cc([C@@H]2c3cc4c(cc3[C@@H](NCc3ccccc3F)C3COC(=O)[C@@H]32)OCO4)cc(OC)c1O (some centres not stated)

>  <Answer label>
FALSE

$$$$
>  <Compound>
Cn1c(-c2cccs2)cc(-c2cccs2)c1-c1ccsc1

>  <Answer label>
FALSE

$$$$
>  <Compound>
Cc1cnc(SCCN2CCN(C)CC2)nc1-c1cc2ccccc2s1

>  <Answer label>
FALSE

$$$$
>  <Compound>
NC(S)=Nc1cc(Cl)ccc1Cl

>  <Answer label>
FALSE

$$$$
>  <Compound>
COc1nc2c(nc(N)n2C2OC(CO)C(O)C(O)C2O)c(=O)[nH]1 (configuration not stated)

>  <Answer label>
FALSE

$$$$
>  <Compound>
Cc1ccc(NCC(=O)N2CC(=O)Nc3ccccc32)c(C)c1

>  <Answer label>
FALSE

$$$$
>  <Compound>
O=C(CSc1nc2ccc(I)cc2c(=O)n1Cc1ccccc1)NNC(=O)c1ccccc1

>  <Answer label>
FALSE

$$$$
>  <Compound>
O=[N+]([O-])c1ccc(N/N=C(\c2ccccc2)c2ccccn2)nc1

>  <Answer label>
TRUE

$$$$
>  <Compound>
COC(=O)[C@]1(c2cc3ccccc3[nH]2)CC2CN(C(=O)OCc3ccccc3)C1C=C2OC (some centres not stated)

>  <Answer label>
FALSE

$$$$
>  <Compound>
COC(=O)[C@H](C)NC(=O)[C@H](CSC)N1C(=O)N[C@@H](C(C)C)C1=O

>  <Answer label>
FALSE

$$$$
>  <Compound>
Nc1ncnc2c1sc1nc3ccccc3n12

>  <Answer label>
FALSE

$$$$
>  <Compound>
CC(=O)c1ccc(Br)cc1NC1=CC(=O)c2ncccc2C1=O

>  <Answer label>
FALSE

$$$$
>  <Compound>
N#CCCN(CCC#N)CCN(CCN(CCC#N)CCC#N)CCN(CCC#N)CCC#N

>  <Answer label>
FALSE

$$$$
>  <Compound>
O=S(=O)(O)c1cccc2c(/N=N/c3c(O)ccc4ccccc34)cccc12

>  <Answer label>
FALSE

$$$$
>  <Compound>
Cc1cc(O)c2c(c1O)C(=O)c1cccc(O)c1C2=O [ISLANDICIN]

>  <Answer label>
FALSE

$$$$
>  <Compound>
CC(C)(C)c1c(C(C)(C)C)c(=O)c1=O

>  <Answer label>
FALSE

$$$$
>  <Compound>
CCOC(=O)c1cccc(/N=N/Nc2cccc(C(=O)OCC)c2)c1

>  <Answer label>
FALSE

$$$$
>  <Compound>
Cn1c(=O)c2c(nc3sc4nc5ccccc5nc4n32)n(C)c1=O

>  <Answer label>
FALSE

$$$$

---

Reported GI50 values for a set of molecules
tested on: SNB-75; assay: NCI tumour cell line growth inhibition, 48 h
Active and inactive are the calls of the source. Cut-off read from the data, not from the text of the source: active = GI50 up to about 1.1 µM and inactive = higher.

>  <Molecule>
Nc1ccccc1C(=O)/C=C/c1ccccc1O

>  <Target or test system>
SNB-75

>  <GI50>
17.5 µM (inactive)

$$$$
>  <Molecule>
Cc1cc(S(=O)(=O)NC2=Nc3ccccc3C(c3ccccc3)N2)c(S)cc1Cl (configuration not stated)

>  <Target or test system>
SNB-75

>  <GI50>
> 100 µM (inactive)

$$$$
>  <Molecule>
CCOc1cccc2cccnc12

>  <Target or test system>
SNB-75

>  <GI50>
> 100 µM (inactive)

$$$$
>  <Molecule>
O=C1OC(CC(=O)c2ccc(Cl)cc2Cl)C(Cl)=C1Cl (configuration not stated)

>  <Target or test system>
SNB-75

>  <GI50>
> 43.7 µM (inactive)

$$$$
>  <Molecule>
O=C(NNC(=O)c1ccccc1Cl)c1ccccc1O

>  <Target or test system>
SNB-75

>  <GI50>
20.5 µM (inactive)

$$$$
>  <Molecule>
NC(C(F)(F)F)(C(F)(F)F)P(=O)(c1ccccc1)c1ccccc1

>  <Target or test system>
SNB-75

>  <GI50>
> 100 µM (inactive)

$$$$
>  <Molecule>
O=[N+]([O-])c1ccc(N/N=C(\c2ccccc2)c2ccccn2)nc1

>  <Target or test system>
SNB-75

>  <GI50>
7.06 µM (inactive)

$$$$
>  <Molecule>
O=C(O)/C=C(/C(=O)O)C12CCN3CC4=CCOC5CC(=O)NC1C5C4CC32 (configuration not stated)

>  <Target or test system>
SNB-75

>  <GI50>
> 100 µM (inactive)

$$$$
>  <Molecule>
N#Cc1ccc(/C=N\N2C(=O)c3ccccc3C2=O)cc1

>  <Target or test system>
SNB-75

>  <GI50>
> 100 µM (inactive)

$$$$
>  <Molecule>
Cn1c(=O)[nH]c2[nH]c3ccccc3c2c1=O

>  <Target or test system>
SNB-75

>  <GI50>
32.1 µM (inactive)

$$$$
>  <Molecule>
CC(C)C1NC(=O)[C@H](C)OC(=O)[C@@H](C(C)C)NC(=O)[C@@H](C)OC(=O)C(C(C)C)NC(=O)[C@H](C)OC1=O (some centres not stated)

>  <Target or test system>
SNB-75

>  <GI50>
> 100 µM (inactive)

$$$$
>  <Molecule>
N#C/C=C\c1ccc(-c2cc(C(F)(F)F)cc(C(F)(F)F)c2)o1

>  <Target or test system>
SNB-75

>  <GI50>
18.7 µM (inactive)

$$$$
>  <Molecule>
N=C(N)N/N=C(\c1ccc(F)cc1)c1ccc(C(F)(F)F)cc1

>  <Target or test system>
SNB-75

>  <GI50>
1.75 µM (inactive)

$$$$
>  <Molecule>
CN(C)c1ccc(/C=C2\N=C(c3ccc(N)cc3)OC2=O)cc1

>  <Target or test system>
SNB-75

>  <GI50>
> 100 µM (inactive)

$$$$
>  <Molecule>
Cc1ccc(Nc2nc(N)nc3c2ncn3C2OC(CO)C(O)C2O)cc1 (configuration not stated)

>  <Target or test system>
SNB-75

>  <GI50>
> 100 µM (inactive)

$$$$
>  <Molecule>
Cn1c(=O)c2c(nc3sc4nc5ccccc5nc4n32)n(C)c1=O

>  <Target or test system>
SNB-75

>  <GI50>
34.8 µM (inactive)

$$$$
>  <Molecule>
S=c1sc2c(Cl)ncnc2n1-c1ccccc1

>  <Target or test system>
SNB-75

>  <GI50>
14 µM (inactive)

$$$$
>  <Molecule>
CCCC(=O)c1c(NOC2OC(COC(C)=O)C(OC(C)=O)C(OC(C)=O)C2OC(C)=O)nc(OC)n(C)c1=O (configuration not stated)

>  <Target or test system>
SNB-75

>  <GI50>
> 100 µM (inactive)

$$$$
>  <Molecule>
Cc1nn(C(=O)c2ccc(Cl)cc2)c2c1C(c1cccc([N+](=O)[O-])c1)SC(=N)N2 (configuration not stated)

>  <Target or test system>
SNB-75

>  <GI50>
> 10 µM (inactive)

$$$$
>  <Molecule>
CCN(CC)c1c(C(C)(C)C)c(=O)n2ccsc2c1OC(C)=O

>  <Target or test system>
SNB-75

>  <GI50>
15 µM (inactive)

$$$$
>  <Molecule>
CN(C)CN(C)c1nc(N(C)C)nc(N(C)C)n1

>  <Target or test system>
SNB-75

>  <GI50>
> 100 µM (inactive)

$$$$
>  <Molecule>
COc1ccccc1/C=N/C12CC3CC(CC(C3)C1)C2

>  <Target or test system>
SNB-75

>  <GI50>
86.9 µM (inactive)

$$$$
